Every entry's value here was drawn from patent US20060069132A1.

Test system: cocklebur
assay: Test B pre-/postemergence herbicide test
Assay type: in vivo, Xanthium strumarium
measurement-setup: 500 g ai/ha; visual rating 0-100, 0 no effect, 100 complete control; preemergence
measured-quantity: Plant response rating, Cocklebur
Number, no unit, nothing else.

Here are 4 compounds together with their reported answers.
QUERY: I am curious: what Plant response rating, Cocklebur value has been reported for CCn1nc(C(C)(C)C)cc1C(=O)Nc1cccc(C(N)=O)n1 ?
RESULT: 90

QUERY: # iterate: CCc1nc(C(C)(C)C)sc1C(=O)Nc1cccc(C(=O)NCC(F)(F)F)c1
RESULT: 0

QUERY: Same again, this time with CCc1nc(C(C)(C)C)sc1C(=O)Nc1cccc(C(=O)NCC(C)C)c1
RESULT: 0

QUERY: How about this compound: CCOC(=O)c1cccc(NC(=O)c2cc(C(C)(C)C)nn2CC)c1OC
RESULT: 0

The record that follows has no Plant response rating, Cocklebur shown yet.
QUERY: Which value of Plant response rating, Cocklebur has been reported for CC(=NO)c1cccc(NC(=O)c2sc(C(C)(C)C)nc2C)c1 in the records?
RESULT: 0

* * *

System: cocklebur
assay: Test C pre-/postemergence herbicide test
Format: in vivo, Xanthium strumarium
measurement-setup: 62 g ai/ha; preemergence
measured-quantity: Plant response rating (0 = no effect, 100 = complete control), Cocklebur
Just the number, please, no unit attached.

QUERY: Entry C=Cn1nc(C(C)(C)C)cc1C(=O)Nc1cccc(C(=O)NCC)c1 [Compound 33] : reported Plant response rating (0 = no effect, 100 = complete control), Cocklebur = ?
RESULT: 0

QUERY: Moving on to CCCN1CCc2c(NC(=O)c3cc(C(C)(C)C)nn3CC)cccc2C1=O [Compound 65]
RESULT: 0

QUERY: Queued: CCn1nc(C(C)(C)C)cc1C(=O)Nc1cccc2c1CCN(C1CC1)C2=O [Compound 64]
RESULT: 0

// next item, Plant response rating (0 = no effect, 100 = complete control), Cocklebur requested
QUERY: Given the entry CCN(C)C(=O)c1cccc(NC(=O)c2cc(C(C)(C)C)nn2CC)c1 [Compound 48] , report its measured Plant response rating (0 = no effect, 100 = complete control), Cocklebur.
RESULT: 0

* * *

We begin with a simple list: items and their reported Plant response rating, Nightshade.
Test system: eastern black nightshade
assay: Test C pre-/postemergence herbicide test
Type: in vivo, Solanum ptycanthum
measurement-setup: 125 g ai/ha; scale 0 (no effect) to 100 (complete control); visual, 12 to 14 days; preemergence
A bare number is all that is needed in reply.

Past entries and their recorded results:
QUERY: Entry CCc1nn(C(C)(C)C)cc1C(=O)Nc1cc(C(=O)N(C)C)ccn1 [Compound 293] has what Plant response rating, Nightshade?
RESULT: 100

QUERY: # repeat for C#CCn1nc(C(C)(C)C)cc1C(=O)Nc1cccc(C(=O)NCC)c1 [Compound 50]
RESULT: 5

QUERY: Another compound to look at: C#CCNC(=O)c1cccc(NC(=O)c2cc(C(C)(C)C)nn2CC)c1 [Compound 47]
RESULT: 100

More entries:
QUERY: Please give the measured Plant response rating, Nightshade for this compound: CCn1nc(C(C)(C)C)cc1C(=O)Nc1cccc(SC)c1 [Compound 131]
RESULT: 95

QUERY: Same thing, different compound: CCN(C)C(=O)c1ccc(F)c(NC(=O)C2CC(C(C)(C)C)=NN2CC)c1 (racemic) [Compound 307]
RESULT: 100

QUERY: What about C=Cn1nc(C(C)(C)C)cc1C(=O)Nc1cccc(C(C)=NO)c1 [Compound 114] ?
RESULT: 90

QUERY: Ok, now CCn1nc(C2(C)CC2)cc1C(=O)Nc1cc(C(=O)N(C)C)ccc1F [Compound 299]
RESULT: 100

QUERY: Also CCc1nn(C(C)(C)C)cc1C(=O)Nc1cc(C(=O)N(CC)CC)ccc1F [Compound 223] ?
RESULT: 100
